The reader will find reported Kd values listed item by item below.
Target: Sterol 14-alpha demethylase (Trypanosoma cruzi (strain CL Brener), UniProt Q7Z1V1)
Sequence (Q7Z1V1 whole entry): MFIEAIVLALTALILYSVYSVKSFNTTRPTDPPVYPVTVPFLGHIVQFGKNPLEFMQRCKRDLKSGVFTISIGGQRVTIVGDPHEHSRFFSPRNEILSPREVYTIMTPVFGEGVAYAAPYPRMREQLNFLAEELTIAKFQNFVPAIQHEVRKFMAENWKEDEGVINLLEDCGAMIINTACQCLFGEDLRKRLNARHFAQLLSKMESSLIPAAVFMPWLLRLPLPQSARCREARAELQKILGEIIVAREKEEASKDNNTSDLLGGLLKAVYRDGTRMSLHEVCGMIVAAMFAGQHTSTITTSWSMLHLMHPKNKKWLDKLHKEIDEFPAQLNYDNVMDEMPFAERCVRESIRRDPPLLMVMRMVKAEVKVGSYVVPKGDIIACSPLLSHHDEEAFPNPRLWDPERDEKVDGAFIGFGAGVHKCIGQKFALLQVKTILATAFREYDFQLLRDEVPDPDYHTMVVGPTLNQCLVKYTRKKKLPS
Assay: Binding affinity to recombinant full-length Trypanosoma cruzi CYP51 by UV-spectrophotometric analysis
Details: read-out: Kd(app)
observable: Kd (nM)

# compound, testTarget, numericResult
measured = [
    ("O=[N+]([O-])c1ncn(CC(O)(Cn2cncn2)c2ccc(-c3ccccc3)cc2)n1 (configuration not stated)", "Sterol 14-alpha demethylase (Trypanosoma cruzi (strain CL Brener), UniProt Q7Z1V1)", 23),
    ("O=[N+]([O-])c1ncn(CC(O)(Cn2cncn2)c2ccc(F)cc2F)n1 (configuration not stated)", "Sterol 14-alpha demethylase (Trypanosoma cruzi (strain CL Brener), UniProt Q7Z1V1)", 606),
]
